Data credit: ChEMBL document CHEMBL3988442

biological target: Sialic acid-binding Ig-like lectin 9 (Homo sapiens) (UniProt Q9Y336); test: Hs-Siglec9 ALPHAscreen SOP 20170721; set-up: scale not given: direction of the effect not stated beside the values; conditions: 10 µM
Sequence (Q9Y336 whole entry): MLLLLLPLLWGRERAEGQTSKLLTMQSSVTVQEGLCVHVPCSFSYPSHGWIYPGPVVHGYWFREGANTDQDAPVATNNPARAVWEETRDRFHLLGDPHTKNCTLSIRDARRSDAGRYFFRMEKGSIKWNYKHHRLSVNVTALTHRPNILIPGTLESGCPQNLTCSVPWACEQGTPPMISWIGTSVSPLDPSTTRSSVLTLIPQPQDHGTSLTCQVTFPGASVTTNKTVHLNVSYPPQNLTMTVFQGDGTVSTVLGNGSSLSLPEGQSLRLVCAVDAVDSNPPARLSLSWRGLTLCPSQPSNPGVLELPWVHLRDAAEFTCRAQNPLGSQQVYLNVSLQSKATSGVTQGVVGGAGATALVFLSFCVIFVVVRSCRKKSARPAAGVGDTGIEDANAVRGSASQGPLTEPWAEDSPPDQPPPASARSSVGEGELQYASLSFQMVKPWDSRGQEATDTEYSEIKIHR
value.kind: Percent Effect (%)
Write the value in % as a bare number.

Exam item: Quickly give me recorded Percent Effect for O=C(Nc1ncn(CC(=O)N2CCCCCC2)n1)C1CCCO1 (stereo unspecified)
Marked response: 1.68

Exam item: Please indicate Percent Effect recorded for COc1ccc(CCN2CCN(C(=O)c3scnc3C)CC2)cc1
Marked response: 0.569

Exam item: Assign Percent Effect to the following record: O=C(NC[C@H]1OC[C@@H]2CCN(C(=O)c3ccco3)C[C@@H]21)C1CC1
Marked response: -2.71

Exam item: Retrieve Percent Effect measured for Cc1nc(CN2C(=O)C[C@@H]3[C@@H]2CCN3C(=O)C2CCOCC2)cs1 and print it.
Marked response: 3.96

Exam item: Answer with the recorded Percent Effect for the molecule listed here: CCc1ccc(C(=O)NC2CCN(c3cnn(C)c3)C2=O)o1 (stereo unspecified)
Marked response: 6.69

Exam item: Return Percent Effect (reported value) for this molecule: Cc1[nH]ccc1C(=O)Nc1cccc(CN2CCC(CO)CC2)c1
Marked response: -13.3

Exam item: Name the recorded Percent Effect of the molecule listed here: CC(=O)Nc1cccc(C(=O)Nc2cnc3n2CCCC3)c1
Marked response: 0.164

Exam item: Report measured Percent Effect; entry is Cc1cc(=O)n2ncnc2n1CC(O)c1ccccc1Cl (stereo unspecified)
Marked response: -5.31

Exam item: Dear colleague, please send me the reported Percent Effect for CC(C)(C)c1nc(CN2CCCC2Cn2cccn2)no1 (stereo unspecified) when you can.
Marked response: -2.85

Exam item: Fill in Percent Effect for record Cc1cnn(CCNCC(=O)NCCOc2ccccc2)c1
Marked response: -1.9

Exam item: Retrieve Percent Effect measured for COc1ccc(CN2C[C@@H]3CCCO[C@@H]3[C@H](NS(C)(=O)=O)C2)cc1 and print it.
Marked response: 4.91

---

target: Sialic acid-binding Ig-like lectin 9 (Homo sapiens); experiment: Hs-Siglec9 ALPHAscreen SOP 20170721; set-up: scale not given: direction of the effect not stated beside the values; details: 10 µM
value.kind: Percent Effect (%)
Kindly answer with a numeric value in %, unit omitted.

Exam item: Report its Percent Effect with Sialic acid-binding Ig-like lectin 9 (Homo sapiens) as the test system: Cn1cc(N2CCC3(CCN(S(=O)(=O)C4CC4)C3)C2=O)cn1 (stereo unspecified)
Marked response: 0.236

Exam item: Under Sialic acid-binding Ig-like lectin 9 (Homo sapiens): report Percent Effect of Cc1ccc(CN2C[C@@H]3COC[C@H](NS(C)(=O)=O)[C@@H]3C2)o1 .
Marked response: -1.89

Exam item: Lab note: record Percent Effect of CCc1cnc(CN2CCCC2c2noc(C3CC3)n2)o1 (stereo unspecified) tested on Sialic acid-binding Ig-like lectin 9 (Homo sapiens).
Marked response: -4.49

Exam item: // output Percent Effect; input Cc1ncsc1C(=O)Nc1cccc(OCC(F)F)n1 ; system Sialic acid-binding Ig-like lectin 9 (Homo sapiens)
Marked response: 1.18

Exam item: Enter Percent Effect (test system Sialic acid-binding Ig-like lectin 9 (Homo sapiens)) for CCCc1noc(CCC(=O)NC(C)c2nnc3n2CCCCC3)n1 (stereo unspecified)
Marked response: 5.58

Exam item: Under Sialic acid-binding Ig-like lectin 9 (Homo sapiens): report Percent Effect of Cn1cccc1CCC(=O)N1CCC2(CC1)c1ccccc1CC2O (stereo unspecified) .
Marked response: 10.8

Exam item: Check Sialic acid-binding Ig-like lectin 9 (Homo sapiens) data and give Percent Effect for CC(=O)Nc1nc(C(=O)NC(C)c2ccc(F)cc2)cs1 (stereo unspecified) .
Marked response: -7.49

Exam item: State the measured Percent Effect (Sialic acid-binding Ig-like lectin 9 (Homo sapiens)) of CC(C)c1nn(C)c(N(C)C)c1CNCCC(=O)NC1CCCC1
Marked response: 3.05

Exam item: State Percent Effect on Sialic acid-binding Ig-like lectin 9 (Homo sapiens). Entry: CNC(=O)CS(=O)(=O)C1CCN(S(=O)(=O)C2CC2)CC1
Marked response: -2.43

Exam item: Write down measured Percent Effect (Sialic acid-binding Ig-like lectin 9 (Homo sapiens)) for this compound. CCCS(=O)(=O)N1CCC2(CN(c3ccsc3)C(=O)CN2C)C1 (stereo unspecified)
Marked response: -0.171

Exam item: // fetch Percent Effect; item: CN(C)C(=O)CC1CC2(CCN(c3ncccn3)CC2)c2ccccc21 (stereo unspecified) ; system: Sialic acid-binding Ig-like lectin 9 (Homo sapiens)
Marked response: -1.25
